measurement_target: T1, human Gelatinase-A (human, UniProt P08253 110-660, limits assumed)
T1 sequence (looked up): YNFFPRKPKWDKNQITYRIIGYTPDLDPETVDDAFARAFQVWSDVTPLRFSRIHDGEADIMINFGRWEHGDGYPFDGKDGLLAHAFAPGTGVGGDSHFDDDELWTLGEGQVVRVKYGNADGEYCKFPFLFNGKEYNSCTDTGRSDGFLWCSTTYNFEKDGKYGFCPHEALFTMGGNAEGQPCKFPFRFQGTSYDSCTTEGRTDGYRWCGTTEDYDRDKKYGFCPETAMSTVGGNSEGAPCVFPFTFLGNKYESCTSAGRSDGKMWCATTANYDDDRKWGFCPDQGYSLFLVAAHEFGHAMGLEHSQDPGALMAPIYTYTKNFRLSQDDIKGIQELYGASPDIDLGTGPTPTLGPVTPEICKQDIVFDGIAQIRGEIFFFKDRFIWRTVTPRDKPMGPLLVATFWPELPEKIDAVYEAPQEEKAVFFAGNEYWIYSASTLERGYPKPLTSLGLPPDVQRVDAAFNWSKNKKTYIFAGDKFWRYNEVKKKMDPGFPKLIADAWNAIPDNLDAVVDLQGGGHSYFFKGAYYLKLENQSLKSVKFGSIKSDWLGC
procedure_summary: cell-based or functional assay
*1 amine or outer side, *2 acyl side, *3 side chain or, on linkers, in order; H or OH if unused. [ ]: non-standard residue; d: D form. The star is where a group is joined. Dnp = O=[N+]([O-])c1ccc(*)c([N+](=O)[O-])c1; C(Me) = CSC[C@H](N[*:1])C(=O)[*:2]
Exercise: state measured Selectivity v. Coll-3 for each of the binders provided.
The answer is to be given in unitless; state only the numeric part.

The binder listed as Dnp-GPLSFQG-NH2 (SMILES CC(C)C[C@H](NC(=O)[C@@H]1CCCN1C(=O)CNc1ccc([N+](=O)[O-])cc1[N+](=O)[O-])C(=O)N[C@@H](CO)C(=O)N[C@@H](Cc1ccccc1)C(=O)N[C@@H](CCC(N)=O)C(=O)NCC(N)=O) [Dnp-GPLSFQG-NH2] shows Selectivity v. Coll-3 equal to 21

The binder listed as Dnp-GPLGFRG[C(Me)]-NH2 (SMILES CSC[C@H](NC(=O)CNC(=O)[C@H](CCCNC(=N)N)NC(=O)[C@H](Cc1ccccc1)NC(=O)CNC(=O)[C@H](CC(C)C)NC(=O)[C@@H]1CCCN1C(=O)CNc1ccc([N+](=O)[O-])cc1[N+](=O)[O-])C(N)=O) [Dnp-GPLGFRGC(Me)-NH2] shows Selectivity v. Coll-3 equal to 10

The binder listed as Dnp-GPSGIHV-NH2 (SMILES CC[C@H](C)[C@H](NC(=O)CNC(=O)[C@H](CO)NC(=O)[C@@H]1CCCN1C(=O)CNc1ccc([N+](=O)[O-])cc1[N+](=O)[O-])C(=O)N[C@@H](Cc1c[nH]cn1)C(=O)N[C@H](C(N)=O)C(C)C) [Dnp-GPSGIHV-NH2] shows Selectivity v. Coll-3 equal to 10

The binder listed as Dnp-GPSELKG-NH2 (SMILES CC(C)C[C@H](NC(=O)[C@H](CCC(=O)O)NC(=O)[C@H](CO)NC(=O)[C@@H]1CCCN1C(=O)CNc1ccc([N+](=O)[O-])cc1[N+](=O)[O-])C(=O)N[C@@H](CCCCN)C(=O)NCC(N)=O) [Dnp-GPSELKG-NH2] shows Selectivity v. Coll-3 equal to 7

The binder listed as Dnp-GPKGMRG-NH2 (SMILES CSCC[C@H](NC(=O)CNC(=O)[C@H](CCCCN)NC(=O)[C@@H]1CCCN1C(=O)CNc1ccc([N+](=O)[O-])cc1[N+](=O)[O-])C(=O)N[C@@H](CCCNC(=N)N)C(=O)NCC(N)=O) [Dnp-GPKGMRG-NH2] shows Selectivity v. Coll-3 equal to 7

The binder listed as Dnp-GPLGLHV[C(Me)]-NH2 (SMILES CSC[C@H](NC(=O)[C@@H](NC(=O)[C@H](Cc1c[nH]cn1)NC(=O)[C@H](CC(C)C)NC(=O)CNC(=O)[C@H](CC(C)C)NC(=O)[C@@H]1CCCN1C(=O)CNc1ccc([N+](=O)[O-])cc1[N+](=O)[O-])C(C)C)C(N)=O) [Dnp-GPLGLHVC(Me)-NH2] shows Selectivity v. Coll-3 equal to 32
